- STUDY TARGET: PE-labeled human PD-L1-Ig binding to Jurkat cell line over-expressing human PD-1 (Jurkat-PD-1) (Homo sapiens, UniProt Q15116)
- Construct: expressed in transfected cells; host or cells: Jurkat
- Sequence (Q15116 25-288): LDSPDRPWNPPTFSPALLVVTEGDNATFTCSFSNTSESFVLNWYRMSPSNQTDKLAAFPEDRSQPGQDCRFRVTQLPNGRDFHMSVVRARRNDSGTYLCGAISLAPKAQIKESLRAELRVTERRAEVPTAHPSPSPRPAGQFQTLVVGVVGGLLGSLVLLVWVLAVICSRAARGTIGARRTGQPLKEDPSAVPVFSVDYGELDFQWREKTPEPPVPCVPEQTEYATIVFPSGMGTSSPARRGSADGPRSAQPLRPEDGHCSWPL
- PROTOCOL: Jurkat-PD-1 Cell Binding High-Content Screening Assay (CBA): Method 1
- COND: Jurkat-hPD-1 cells, PE-labeled PD-L1-Ig 20 nM final; read-out: Jurkat HPDL1 PD1 IC50 (uM) (Method 1)
Bridge positions count the residues as written; N and C are the ends. Square brackets hold non-standard residues; d marks the D form. Peptide text beside a SMILES is read from it. Bip = N[C@@H](Cc1ccc(-c2ccccc2)cc1)C(=O)O; 1Nal = N[C@@H](Cc1cccc2ccccc12)C(=O)O; NMeA = CN[C@@H](C)C(=O)O
OBSERVATION TYPE: IC50
# output: number + unit

{"MOLECULE": "CC(C)C[C@@H]1NC(=O)[C@H](Cc2c[nH]c3ccccc23)NC(=O)[C@H](CC(=O)O)NC(=O)[C@H](Cc2cccc3ccccc23)NC(=O)[C@H](Cc2ccccc2)NC(=O)CSC[C@@H](C(=O)N[C@@H](C)C(N)=O)NC(=O)[C@H](CO)NC(=O)[C@H](C(C)C)NC(=O)[C@H](CC(C)C)NC(=O)[C@H](CC(N)=O)NC(=O)[C@@H](C)NC(=O)[C@H](C)N(C)C(=O)[C@H](C(C)C)NC(=O)[C@H](Cc2ccc(-c3ccccc3)cc2)NC1=O [Compound 1805] ({CH2CO}-F[1Nal]DWL[Bip]V[NMeA][dA]NLVSCA-NH2; thioether N-14)", "OBSERVATION TYPE": "IC50", "OBSERVED": "0.23 µM"}

Attention now shifts to the item below.
Query: Give recorded IC50. CC(C)C[C@@H]1NC(=O)[C@H](Cc2c[nH]c3ccccc23)NC(=O)[C@H](CC(=O)O)NC(=O)[C@H](Cc2ccc(O)cc2)NC(=O)[C@H](Cc2cnc[nH]2)NC(=O)CSC[C@@H](C(=O)N[C@@H](C)C(N)=O)NC(=O)[C@H](CO)NC(=O)[C@H](C(C)C)NC(=O)[C@H](CC(C)C)NC(=O)[C@H](CC(N)=O)NC(=O)[C@@H](C)NC(=O)[C@H](C)N(C)C(=O)[C@H](C(C)C)NC(=O)[C@H](Cc2ccc(-c3ccccc3)cc2)NC1=O [Compound 1736] ({CH2CO}-HYDWL[Bip]V[NMeA][dA]NLVSCA-NH2; thioether N-14)
Reply: 0.02 µM
